// provenance: the supplement of paper PMC10065799

System: c-Abl (mouse);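 also: 11-residue human phosphosite peptides and single-mutation variants displayed on the E. coli surface, counted by deep sequencing, each peptide's frequency after selection divided by its frequency in the unselected input library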;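 also: frequency after pTyr selection over input frequency; kinase dosed for 20-30% of maximal phosphorylation in three min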
Assay: phosphorylation enrichment, bacterial display (enrichment ratio); higher = better substrate or ligand; peptides without Tyr show the background
The following sequences are shown together with reported phosphorylation enrichment values.

residues | experimental system | phosphorylation enrichment
SHNELYYEAAE [VANGL1_Y344_E347A] | c-Abl (mouse) | 0.801
KPGVNYYFQVS | c-Abl (mouse) | 0.895
ASNFNYFFHRE [KCNA1_Y413_V408A_YF] | c-Abl (mouse) | 0.571
LNEWHYGGLTG [PGAM2_Y92_R90W] | c-Abl (mouse) | 0.626
SGVVPYEPPEV [TP53_Y220_V216G] | c-Abl (mouse) | 0.659
KVKPIYLHTQG [AR_Y916_F917L] | c-Abl (mouse) | 0.736
GKGGSYSQAAS [HLA-B_Y344_C349S] | c-Abl (mouse) | 0.622
YIRKDYEACKA [BBS4_Y48] | c-Abl (mouse) | 0.374
KSELAYEIFDK [MYOM2_Y1024] | c-Abl (mouse) | 0.915
DTLLEYLENPK [CYCS_Y68_M66L] | c-Abl (mouse) | 0.668
PSARTYCFKQE [KLHDC9_Y175_YF] | c-Abl (mouse) | 0.491
CKRQFYLYKGK [RSPO4_Y112] | c-Abl (mouse) | 0.438
KLRMESLSLMH [NCKIPSD_Y660_Y660S] | c-Abl (mouse) | 0.508
SMGHRYIEVFR [HNRNPF_Y82_K87R] | c-Abl (mouse) | 0.514
